Provide the recorded protein stability index for the entries that follow.
B1: CDC25B (parent)
chain: FVDILESDLKDDDAVPPGMESLIS

Variants of: B1
Assay: protein stability index of a GFP-peptide fusion (GPS, HEK-293T) (PSI 1-6); higher = more stable;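 also: lentivirally expressed fusions sorted by FACS into six bins by GFP to DsRed ratio, PSI derived from sequencing read proportions per bin multiplied by bin number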
Settings: c terminus: a fixed tail appended
Give bare numbers.

Sample answers from the record:
>  <MUTANT NAME>
L9R

>  <protein stability index>
3.08

$$$$
>  <MUTANT NAME>
D13A

>  <protein stability index>
3.04

$$$$
>  <MUTANT NAME>
D3S

>  <protein stability index>
2.96

$$$$
>  <MUTANT NAME>
P16T

>  <protein stability index>
2.98

$$$$
>  <MUTANT NAME>
D3C

>  <protein stability index>
2.4

$$$$

For every item below, please supply its protein stability index.
1. S7F
2. V2Y
3. A14T
4. D3A
5. D12S
6. L5T
7. A14W
8. E6A

Result ::
1.9
4.29
3.61
2.65
2.96
3.51
2.65
2.04

Query :: What value of protein stability index has been recorded for this entry: P17I
Result :: 2.45
